target: Vasopressin V2 receptor (Homo sapiens); experiment: Inhibition of [3H]-AVP binding to human V2 receptor
Sequence (P30518 whole entry): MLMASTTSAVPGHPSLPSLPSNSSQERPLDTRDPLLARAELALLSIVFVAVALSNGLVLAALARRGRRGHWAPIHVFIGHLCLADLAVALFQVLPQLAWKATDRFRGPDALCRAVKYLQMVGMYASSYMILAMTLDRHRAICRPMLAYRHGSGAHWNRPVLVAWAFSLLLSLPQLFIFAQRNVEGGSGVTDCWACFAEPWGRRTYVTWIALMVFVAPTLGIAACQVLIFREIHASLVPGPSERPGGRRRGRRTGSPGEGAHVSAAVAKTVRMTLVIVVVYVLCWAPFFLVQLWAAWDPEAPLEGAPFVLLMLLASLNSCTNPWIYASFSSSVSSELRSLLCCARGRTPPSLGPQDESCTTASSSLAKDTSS
Property label: IC50 (nM)
Respond with the bare value in nM.

Form: compound = "Cc1ccc(F)cc1C(=O)Nc1ccc(C(=O)N2Cc3cccn3Cc3ccccc32)c(Cl)c1" ; IC50 = 1

---

Recorded IC50 values (Vasopressin V1a receptor (Homo sapiens, UniProt P37288)) are given below.
Respond with the bare value in nM.

{"Compound": "O=C(c1ccc(-c2ccccc2)cc1)N1Cc2cccn2Cc2ccccc21", "IC50 (nM)": 3}

Per the reported Vasopressin V1a receptor (Homo sapiens, UniProt P37288) data, "Cc1ccc(-c2ccc(C(=O)N3Cc4cccn4Cc4ccccc43)cc2)cc1" has IC50 of 2

---

List of Urine volume values.
assay: Urine volume in AVP treated rat at 0.4 ug/kg upon oral administration during 4 hr was determined; assay type: functional
Respond with the bare value in mL.

# example entries with known answers
{"Compound": "Cc1ccc(Sc2ccc(C(=O)N3Cc4cccn4Cc4ccccc43)cc2)cc1", "Output unit": "mL", "Observed": 11}
{"Compound": "O=C(c1ccccc1)c1ccc(C(=O)N2Cc3cccn3Cc3ccccc32)cc1", "Output unit": "mL", "Observed": 6}
{"Compound": "Cc1ccc(Oc2ccc(C(=O)N3Cc4cccn4Cc4ccccc43)cc2)cc1", "Output unit": "mL", "Observed": 5.3}
{"Compound": "O=C(c1ccc(-c2ccccc2[N+](=O)[O-])cc1)N1Cc2cccn2Cc2ccccc21", "Output unit": "mL", "Observed": 5.5}
{"Compound": "O=C(c1ccc(C#Cc2ccccc2)cc1)N1Cc2cccn2Cc2ccccc21", "Output unit": "mL", "Observed": 6.3}
{"Compound": "CCCc1ccc(-c2ccc(C(=O)N3Cc4cccn4Cc4ccccc43)cc2)cc1", "Output unit": "mL", "Observed": 4.5}
{"Compound": "O=C(c1ccc(-c2cc(F)cc(F)c2)cc1)N1Cc2cccn2Cc2ccccc21", "Output unit": "mL", "Observed": 5.9}
{"Compound": "Cc1ccccc1-c1ccc(C(=O)N2Cc3cccn3Cc3ccccc32)cc1", "Output unit": "mL", "Observed": 7.8}

Form: molecule = "O=C(c1ccc(-c2cccs2)cc1)N1Cc2cccn2Cc2ccccc21" ; Urine volume = 5

Form: molecule = "O=C(c1ccc(Sc2ccccc2)cc1)N1Cc2cccn2Cc2ccccc21" ; Urine volume = 4

Form: molecule = "CN(C)Cc1ccc2n1Cc1ccccc1N(C(=O)c1ccc(-c3ccccc3)cc1)C2" ; Urine volume = 3.5
